Reference source: patent US20260248972A1

# experiment-description: in vivo
# test-conditions: BALB/c nude, mouse, in vivo, iv, total radioactivity, T/St Tumor/Stomach ratio
endpoint: tissue to tissue ratio at 24 h
Field format: numeric only.

compound	tissue to tissue ratio at 24 h
C[C@@H](O)[C@H](NC(=O)[C@@H]1CSSC[C@H](NC(=O)[C@@H](Cc2ccccc2)NC(=O)COCCOCCNC(=O)COCCOCCNC(=O)[C@H](CCCCNC(=O)c2cccc(NC(=O)N[C@@H]3CN(C4CCCCC4)c4ccccc4N(CC(=O)C(C)(C)C)C3=O)c2)NC(=O)CN2CCN(CC(=O)O)CCN(CC(=O)O)CCN(CC(=O)O)CC2)C(=O)N[C@@H](Cc2ccc(O)cc2)C(=O)N[C@H](Cc2c[nH]c3ccccc23)C(=O)N[C@@H](CCCCN)C(=O)N[C@@H]([C@@H](C)O)C(=O)N1)C(=O)O [Compound I-39, DOTA-K(Z360)-OEG-OEG-f[CYwKTC]T-OH]	5.9
C[C@@H](O)[C@H](NC(=O)[C@@H]1CSSC[C@H](NC(=O)[C@@H](Cc2ccccc2)NC(=O)COCCOCCNC(=O)[C@H](CCCCNC(=O)[C@H](CCC(=O)O)NC(=O)c2cccc(NC(=O)N[C@@H]3CN(C4CCCCC4)c4ccccc4N(CC(=O)C(C)(C)C)C3=O)c2)NC(=O)CN2CCN(CC(=O)O)CCN(CC(=O)O)CCN(CC(=O)O)CC2)C(=O)N[C@@H](Cc2ccc(O)cc2)C(=O)N[C@H](Cc2c[nH]c3ccccc23)C(=O)N[C@@H](CCCCN)C(=O)N[C@@H]([C@@H](C)O)C(=O)N1)C(=O)O [Compound I-27, DOTA-K(-E-Z360)-OEG-f[CYwKTC]T-OH]	6.3
C[C@@H](O)[C@H](NC(=O)[C@@H]1CSSC[C@H](NC(=O)[C@@H](Cc2ccccc2)NC(=O)COCCOCCNC(=O)[C@H](CCCCNC(=O)[C@H](CCC(=O)O)NC(=O)c2cccc(NC(=O)N[C@@H]3CN(C4CCCCC4)c4ccccc4N(CC(=O)C(C)(C)C)C3=O)c2)NC(=O)CN2CCN(CC(=O)O)CCN(CC(=O)O)CCN(CC(=O)O)CC2)C(=O)N[C@@H](Cc2ccc(O)cc2)C(=O)N[C@H](Cc2c[nH]c3ccccc23)C(=O)N[C@@H](CCCCN)C(=O)N[C@@H]([C@@H](C)O)C(=O)N1)C(N)=O [Compound I-3, DOTA-K(-E-Z360)-OEG-f[CYwKTC]T-NH2]	4.2

Challenge: Item C[C@@H](O)[C@H](NC(=O)[C@@H]1CSSC[C@H](NC(=O)[C@@H](Cc2ccccc2)NC(=O)[C@H](CCCCNC(=O)CC[C@H](NC(=O)CNC(=O)c2cccc(NC(=O)N[C@@H]3CN(C4CCCCC4)c4ccccc4N(CC(=O)C(C)(C)C)C3=O)c2)C(=O)O)NC(=O)COCCOCCNC(=O)CCC(C(=O)O)N2CCN(CC(=O)O)CCN(CC(=O)O)CCN(CC(=O)O)CC2)C(=O)N[C@@H](Cc2ccc(O)cc2)C(=O)N[C@H](Cc2c[nH]c3ccccc23)C(=O)N[C@@H](CCCCN)C(=O)N[C@@H]([C@@H](C)O)C(=O)N1)C(=O)O (stereo partly shown) [Compound I-19] has what recorded tissue to tissue ratio at 24 h?
Response given: 4.3
